Source: patent US20150183820A1

targetOrSystem: human immunoglobulin IgG
method: SPR, binder on SA chip, 1 uM IgG, dissociation in 10 mM sodium acetate pH 4.0
recordedEndpoint: ratio of the remaining amount of antibody by SPR sensorgram at pH 4.0 (%)

INSERT INTO assay_data (binder, unittag, testresult) VALUES
  ('OXADac-PG01 (protein) MGAGTPVTAPLAGTIWKVLASEGQTVAAGEVLLILEAMKMETEIRAAQAGTVRGIAVKAGDAVAVGDTLMTLAGSGSDLYDDDDKGIITSLYKKAGSAAAPFTDTYKLILNGKTLKGETTTEAVDAATAEKVFKQYANDNGVDGEWTYDDATKTFTVTE', '%', 99);
